tested on: HBE; test: Antiinflammatory activity in human HBE cells assessed as inhibition of LPS-induced IL-6 production at 5 uM pretreated with compound for 30 mins followed by LPS stimulation and measured after 24 hrs by ELISA; assay type: functional, cell-based; settings: time 1470.0 min
The source made the active and inactive calls. No cut-off for these calls is given here.
valueType: Activity

| substanceSmiles | Activity |
| --- | --- |
| COc1ccc2c(c1)c(CC(=O)O)c(C)n2C(=O)c1ccc(Cl)cc1 | Active |
| COc1cc(N(C)CCN(C)C)c(NC(=O)CCCN=[N+]=[N-])cc1Nc1nccc(-c2cn(C)c3ccccc23)n1 | Active |
| COc1cc(N2CCOCC2)c(N)cc1Nc1nccc(-c2cn(C)c3ccccc23)n1.Cl | Active |
| COc1cc(N(C)CCN(C)C)c([N+](=O)[O-])cc1Nc1nccc(-c2cn(C)c3ccccc23)n1 | Active |
| CCN(CC)c1cc(OC)c(Nc2nccc(-c3cn(C)c4ccccc34)n2)cc1N.Cl | Active |

Recorded Activity of CCCCN(CCCC)c1cc(OC)c(Nc2nccc(-c3cn(C)c4ccccc34)n2)cc1N.Cl , please.
Active

How about this compound: COc1cc(N(C)CCN(C)C)c(NC(=O)CN=[N+]=[N-])cc1Nc1nccc(-c2cn(C)c3ccccc23)n1
Active

Thanks! And COc1cc(N2CCCCCC2)c(N)cc1Nc1nccc(-c2cn(C)c3ccccc23)n1.Cl ?
Active

Cool, now COc1cc(N2CCCCC2)c(N)cc1Nc1nccc(-c2cn(C)c3ccccc23)n1.Cl
Active

Origin of values: ChEMBL document CHEMBL4842366
